experimentalTarget: hCB1R (Homo sapiens, UniProt P21554)
Construct: expressed in transfected cells; host or cells: CHO cells (membranes)
Sequence (P21554 whole entry): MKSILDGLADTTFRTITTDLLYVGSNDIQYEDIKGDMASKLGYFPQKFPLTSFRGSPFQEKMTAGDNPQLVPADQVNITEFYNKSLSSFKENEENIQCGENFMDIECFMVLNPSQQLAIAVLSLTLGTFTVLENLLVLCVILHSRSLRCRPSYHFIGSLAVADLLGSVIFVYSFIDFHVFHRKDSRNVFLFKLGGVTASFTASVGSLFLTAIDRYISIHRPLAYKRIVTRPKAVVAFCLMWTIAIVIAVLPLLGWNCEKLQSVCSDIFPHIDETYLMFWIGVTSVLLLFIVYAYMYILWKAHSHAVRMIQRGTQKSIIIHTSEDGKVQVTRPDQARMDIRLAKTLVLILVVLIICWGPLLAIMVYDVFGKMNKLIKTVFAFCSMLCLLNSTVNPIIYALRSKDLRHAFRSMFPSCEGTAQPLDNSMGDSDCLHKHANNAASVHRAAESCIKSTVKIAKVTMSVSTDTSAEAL
assayNotes: [3H]CP55,940 radioligand displacement assay, CHO cell membranes
Type: binding
pKi: −log10 of the molar value.
Please respond with reported pKi for every item in the list.

Problem: Please report pKi with hCB1R (Homo sapiens, UniProt P21554) for item CC1CCC(NC(=O)c2cc3cccnc3n(CCCCCCl)c2=O)CC1 (stereo not drawn) [FG160a] .
Result: < 5.00

Problem: Please report pKi with hCB1R (Homo sapiens, UniProt P21554) for item CC1CCC(NC(=O)c2cc3cccnc3n(CCCCCBr)c2=O)CC1 (stereo not drawn) [FG158a] .
Result: < 5.00

Problem: Please report pKi with hCB1R (Homo sapiens, UniProt P21554) for item CC1CCC(NC(=O)c2cc3cccnc3n(CCCCCO)c2=O)CC1 (stereo not drawn) [LV62, reference compound] .
Result: < 5.00

* * *

Please respond with reported pEC50 for every item in the list.
experimentalTarget: hCB2R (Homo sapiens, UniProt P34972)
Construct: host or cells: HitHunter CHO-K1 cells
Sequence (P34972 whole entry): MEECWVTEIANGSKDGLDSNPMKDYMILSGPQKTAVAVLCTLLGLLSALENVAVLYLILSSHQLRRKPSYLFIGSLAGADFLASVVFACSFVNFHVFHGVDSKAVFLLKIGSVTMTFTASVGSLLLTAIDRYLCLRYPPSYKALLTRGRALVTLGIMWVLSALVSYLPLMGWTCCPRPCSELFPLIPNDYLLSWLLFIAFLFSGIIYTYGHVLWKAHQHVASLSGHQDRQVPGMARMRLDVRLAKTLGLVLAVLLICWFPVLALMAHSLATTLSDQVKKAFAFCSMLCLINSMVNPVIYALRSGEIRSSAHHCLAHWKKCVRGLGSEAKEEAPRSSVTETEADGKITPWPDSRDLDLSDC
assayNotes: PathHunter β-arrestin2 recruitment assay in CHO cells
Assay type: cell-based
pEC50: −log10 of the molar value.

Problem: Retrieve pEC50 measured for CC1CCC(NC(=O)c2cc3cccnc3n(CCCCCBr)c2=O)CC1 (stereo not drawn) [FG158a] and print it.
Result: < 5.00

Problem: Retrieve pEC50 measured for CC1CCC(NC(=O)c2cc3cccnc3n(CCCCCO)c2=O)CC1 (stereo not drawn) [LV62, reference compound] and print it.
Result: 7.20

Problem: Retrieve pEC50 measured for CC1CCC(NC(=O)c2cc3cccnc3n(CCCCCCl)c2=O)CC1 (stereo not drawn) [FG160a] and print it.
Result: < 5.00

* * *

System: SH-SY5Y cells
assayNotes: Sulforhodamine B (SRB) cell viability assay
Type: cell-based, human
conditionContext: Homo sapiens, 72 h of treatment, SRB, cis/trans mixture
Please respond with reported pIC50 for every item in the list.
Lab note: report pIC50 as minus log10 of the concentration in molar units, number only.

Problem: Please report pIC50 with SH-SY5Y cells for item CC1CCC(NC(=O)c2cc3cccnc3n(CCCCCO)c2=O)CC1 (stereo not shown) [LV62, reference compound] .
Result: 4.42

Problem: Please report pIC50 with SH-SY5Y cells for item CC1CCC(NC(=O)c2cc3cccnc3n(CCCCCN=[N+]=[N-])c2=O)CC1 (stereo not shown) [FG161a] .
Result: 4.56

Problem: Please report pIC50 with SH-SY5Y cells for item CC1CCC(NC(=O)c2cc3cccnc3n(CCCCCCl)c2=O)CC1 (stereo not shown) [FG160a] .
Result: 4.88

Problem: Please report pIC50 with SH-SY5Y cells for item CC1CCC(NC(=O)c2cc3cccnc3n(CCCCCBr)c2=O)CC1 (stereo not shown) [FG158a] .
Result: 4.93

* * *

experimentalTarget: hCB2R (Homo sapiens, UniProt P34972)
quantity: Ki (nM)
Expressed in nM, but write only the number.

Problem: Retrieve Ki measured for CC1CCC(NC(=O)c2cc3cccnc3n(CCCCCBr)c2=O)CC1 (stereo not shown) [FG158a] and print it.
Result: 21

Problem: Retrieve Ki measured for CC1CCC(NC(=O)c2cc3cccnc3n(CCCCCCl)c2=O)CC1 (stereo not shown) [FG160a] and print it.
Result: 16.5

Problem: Retrieve Ki measured for CC1CCC(NC(=O)c2cc3cccnc3n(CCCCCN=[N+]=[N-])c2=O)CC1 (stereo not shown) [FG161a] and print it.
Result: 45

Problem: Retrieve Ki measured for CC1CCC(NC(=O)c2cc3cccnc3n(CCCCCO)c2=O)CC1 (stereo not shown) [LV62, reference compound] and print it.
Result: 37

* * *

experimentalTarget: hCB2R (Homo sapiens)
Construct: host or cells: HitHunter CHO-K1 cells
assayNotes: HitHunter cAMP assay: inhibition of FSK-stimulated cAMP accumulation in CHO cells
Format: cell-based
conditionContext: CHO cells expressing human CB2R; 10 μM FSK; 90 min; read-out: cAMP Inhibition EC50 (95% C.I.)
quantity: EC50 (µM)
Expressed in µM, but write only the number.

Problem: Retrieve EC50 measured for CC1CCC(NC(=O)c2cc3cccnc3n(CCCCCN=[N+]=[N-])c2=O)CC1 (stereo not shown) [FG161a] and print it.
Result: 0.76
